Tested on: Haemophilus influenzae
Assay: Susceptibility (MIC/MBC) of H. influenzae clinical isolates
Format: cell-based
Details: Haemophilus influenzae, strain 36; nanoemulsion values as μg CPC/ml or μg BA/ml
value-kind: MIC (µg/mL)
Expressed in µg/mL, but write only the number.

Completed entries (count: 3):
* CCC[C@@H]1C[C@@H](C(=O)N[C@@H]([C@H]2O[C@H](SC)[C@H](O)[C@@H](O)[C@H]2O)[C@H](C)Cl)N(C)C1 | 16
* CC[C@H]1OC(=O)[C@H](C)[C@@H](O[C@H]2C[C@@](C)(OC)[C@@H](O)[C@H](C)O2)[C@H](C)[C@@H](O[C@@H]2O[C@H](C)C[C@H](N(C)C)[C@H]2O)[C@](C)(O)C[C@@H](C)CN(C)[C@H](C)[C@@H](O)[C@]1(C)O | 2
* CN(C)[C@@H]1C(O)=C(C(N)=O)C(=O)[C@@]2(O)C(O)=C3C(=O)c4c(O)cccc4[C@@](C)(O)[C@H]3C[C@@H]12 | 1

Could you now look at the following molecule, please?
Enquiry: I'd like to know its MIC. The molecule in question is `CC1(C)S[C@@H]2[C@H](NC(=O)[C@H](N)c3ccccc3)C(=O)N2[C@H]1C(=O)O`
Return: 0.125

Values were extracted from patent US20100092526A1.
